- Study target: HIV Env of isolate T250-4 a.k.a. CRF250 (clade AG) (HIV)
- Assay notes: cell-based or functional assay
Reported IC80 (µg/ml) with constrains values for the following binders.
Answer with the figure and its unit, nothing else.

INSERT INTO measurements (binder, result) VALUES
  ('ePGDM5 (antibody, V domains shown) VH: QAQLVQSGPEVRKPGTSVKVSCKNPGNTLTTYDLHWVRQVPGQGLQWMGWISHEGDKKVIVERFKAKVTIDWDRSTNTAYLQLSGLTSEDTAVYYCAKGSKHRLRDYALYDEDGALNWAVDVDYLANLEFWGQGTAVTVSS VL: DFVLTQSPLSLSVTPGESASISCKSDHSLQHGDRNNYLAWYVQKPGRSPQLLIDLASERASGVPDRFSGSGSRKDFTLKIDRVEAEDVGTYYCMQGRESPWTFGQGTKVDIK', '0.261 µg/mL'),
  ('ePGDM13 (antibody, V domains shown) VH: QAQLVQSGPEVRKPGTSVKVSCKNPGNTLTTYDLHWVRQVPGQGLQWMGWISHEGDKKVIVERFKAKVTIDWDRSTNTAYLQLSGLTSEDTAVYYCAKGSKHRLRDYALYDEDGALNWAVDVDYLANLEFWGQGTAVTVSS VL: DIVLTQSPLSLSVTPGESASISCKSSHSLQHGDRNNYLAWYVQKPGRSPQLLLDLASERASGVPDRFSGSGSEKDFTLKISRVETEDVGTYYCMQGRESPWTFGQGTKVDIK', '0.14 µg/mL');

I am curious: what IC80 (µg/ml) with constrains value has been reported for PGDM1400 (antibody, V domains shown) VH: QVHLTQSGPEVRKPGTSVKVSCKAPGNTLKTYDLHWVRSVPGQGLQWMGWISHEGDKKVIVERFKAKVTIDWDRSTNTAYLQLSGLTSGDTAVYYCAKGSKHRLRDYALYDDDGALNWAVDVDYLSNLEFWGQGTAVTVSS VL: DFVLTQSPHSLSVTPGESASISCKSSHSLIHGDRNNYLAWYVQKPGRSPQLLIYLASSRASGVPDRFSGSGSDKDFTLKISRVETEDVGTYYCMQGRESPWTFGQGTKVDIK ?
1.12 µg/mL

Reference source for all entries: patent US20230134571A1
